For each entry below, report its IC50 value.
- targetOrTestSystem: androgen receptor LBD (Panvera) (Rattus norvegicus, UniProt P15207)
- Construct: 5 pmol androgen receptor LBD (Panvera); purchased Panvera
- Sequence (P15207 651-882 limits assumed): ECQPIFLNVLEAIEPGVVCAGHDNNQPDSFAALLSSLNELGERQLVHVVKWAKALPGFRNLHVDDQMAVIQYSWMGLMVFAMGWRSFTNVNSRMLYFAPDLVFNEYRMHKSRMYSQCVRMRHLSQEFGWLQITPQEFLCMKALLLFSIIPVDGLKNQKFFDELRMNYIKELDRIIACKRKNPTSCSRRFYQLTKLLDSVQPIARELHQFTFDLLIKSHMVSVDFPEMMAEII
- assaySummary: Androgen Receptor Filtration Binding Assay (PANVERA)
- experimentalParameters: [3H] R1881 tracer 0.5 nM; read-out: IC50 (nM), Androgen Receptor Binding (Panvera)
Answers are plain numbers, in nM.

Some compounds with recorded IC50:
CC(O)(C[S+]([O-])c1ccc(Cl)c(Cl)c1)c1cc2cc(Cl)c(C(F)(F)F)cc2[nH]1 (centres unmarked) [Compound 116]	1750
Cc1ccc(C(=O)OCC(C)(O)c2cc3cc([N+](=O)[O-])c(C(F)(F)F)cc3[nH]2)cc1 (centres unmarked)	1200
CC(O)(SC1CCCCC1)c1cc2cc([N+](=O)[O-])c(C(F)(F)F)cc2[nH]1 (racemic)	2650

# return IC50 for each item in the list
1. CC(CO)(Sc1ccc(Cl)cc1)c1cc2cc(Cl)c(C(F)(F)F)cc2[nH]1 (racemic)
2. CC(O)(CSc1ccccc1)c1cc2nc(C(F)(F)F)ccc2[nH]1 (racemic)
3. O=C(c1ccc(Cl)cc1)N1CCC(O)(c2cc3cc(Cl)c(C(F)(F)F)cc3[nH]2)CC1

Reply:
[335, 53000, 8800]

# return IC50 for each item in the list
1. CC(O)(CSc1ccc(F)cc1)c1cc2ccccc2n1S(C)(=O)=O (centres unmarked)
2. COC(=O)c1ccc2c(c1)cc(C(C)(O)CSc1ccccc1)n2S(C)(=O)=O (centres unmarked)
3. CC(O)(COC(=O)c1c(Cl)cccc1Cl)c1cc2cc([N+](=O)[O-])c(C(F)(F)F)cc2[nH]1 (centres unmarked)
4. CC(O)(CSc1ccccc1)c1cc2cc(C#N)c(C(F)(F)F)cc2[nH]1 (centres unmarked)

Reply:
1. 9400
2. 15000
3. 150
4. 3000

# return IC50 for each item in the list
1. CC(O)(CSc1ccc(F)cc1)c1cc2cc(Cl)ccc2[nH]1 (centres unmarked)
2. O=C(OCc1ccccc1)N1CCC(O)(c2cc3cc(Cl)c(C(F)(F)F)cc3[nH]2)CC1

Reply:
1160
23500
